Reported EC50 (read off the curve) values are given for each entry in this list.
Target: T1, human GITR-CHO (human, UniProt Q9Y5U5)
T1 construct: expressed on the surface of CHO cells, construct not described; also called human GITR expressed on the surface of CHO cells
T1 sequence (looked up): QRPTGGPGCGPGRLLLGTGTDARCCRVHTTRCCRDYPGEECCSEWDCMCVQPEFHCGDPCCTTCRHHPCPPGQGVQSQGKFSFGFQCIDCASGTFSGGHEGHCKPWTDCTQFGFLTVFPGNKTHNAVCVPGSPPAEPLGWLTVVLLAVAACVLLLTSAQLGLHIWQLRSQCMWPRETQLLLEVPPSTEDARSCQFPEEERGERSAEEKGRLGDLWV
Experiment: flow cytometry on human GITR-CHO cells

hzC06v2.3 (VHH) VHH: EVQLLESGGGEVQPGGSLRLSCAASGSVFSIDAMGWYRQAPGKQRELVAVLSGISSATYAESVKGRFTISRDNAKNTLYLQMSSLRAEDTAVYYCYADVSTGWGRDAHGYWGQGTLVTV: 1 to 2 nM

API: the following record is the query input.
input: Hello, please tell me recorded EC50 (read off the curve) for this one: hzC06v2.2 (VHH) VHH: EVQLLESGGGEVQPGGSLRLSCAASGSVFSIDAMGWYRQAPGKGRELVAVLSGISSATYAESVKGRFTISRDNAKNTLYLQMSSLRAEDTAVYYCYADVSTGWGRDAHGYWGQGTLVTV
output: 1 to 2 nM
